Each recorded value in this set is attributed to patent US20230265151A1.

Molecular target: human GLP-1 receptor (human, UniProt P43220 24-463)
Assay: cell-based or functional assay
This section presents binders with their documented cAMP EC50 (1.0% HSA) values.
Unit nM implied. Number only.

{"columns": ["Binder", "Metric name", "Readout value"],
 "data": [
  ["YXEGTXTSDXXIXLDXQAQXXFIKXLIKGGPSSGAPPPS (Y-Aib-EGT-αMeF(2F)-TSD-4Pal-Aib-I-αMeL-LD-Orn-QAQ-Aib-Orn-FIK((2-[2-(2-Amino-ethoxy)-ethoxy]-acetyl)2--Trx-(γ-Glu)-CO-(CH2)12-CO2H)-αMeY-LIK(((2-[2-(2-Amino-ethoxy)-ethoxy]-acetyl)2--Trx(γ-Glu)-CO-(CH2)12-CO2H)GGPSSGAPPPS-NH2)) [Example 470]", "cAMP EC50 (1.0% HSA)", 4.54],
  ["YXEGTXTSDYXIXLDXIAQXEFIKXLIKGGPSSGAPPPS (Y-Aib-EGT-αMeF(2F)-TSDY-Aib-I-αMeL-LD-Orn-IAQ-Aib-EFIK((2-[2-(2-Amino-ethoxy)-ethoxy]-acetyl)2-(γ-Glu)-(2-[2-(2-Amino-ethoxy)-ethoxy]-acetyl)-CO-(CH2)12-CO2H)-αMeY-LIK((2-[2-(2-Amino-ethoxy)-ethoxy]-acetyl)2-(γ-Glu)-(2-[2-(2-Amino-ethoxy)-ethoxy]-acetyl)-CO-(CH2)12-CO2H)GGPSSGAPPPS-NH2) [Example 363]", "cAMP EC50 (1.0% HSA)", 14.3]
]}

Then this binder:
Q) Find the recorded cAMP EC50 (1.0% HSA) belonging to YXEGTXTSDXXIXLDXKAQXKFIXXLIXGGPSSGAPPPS (Y-Aib-EGT-αMeF(2F)-TSD-4Pal-Aib-I-αMeL-LD-Orn-K((2-[2-(2-Amino-ethoxy)-ethoxy]-acetyl)3-(γ-Glu)-CO-(CH2)10-CH3)AQ-Aib-K((2-[2-(2-Amino-ethoxy)-ethoxy]-acetyl)3-(γ-Glu)-CO-(CH2)10-CH3)FI-(D-Glu)-αMeY-LI-Orn-GGPSSGAPPPS-NH2) [Example 433] and report it.
A) 2.63
